readout-kind: melting point

Illustrative cases are given below, each with its answer.
query: Form field: reported melting point of Cc1ncc(Cn2nnc(COc3ccc(Br)cc3)c2I)c(N)n1
result: 138 to 140 °C

query: Returns the measured melting point for the input compound. Input: Cc1ncc(Cn2cc(COC(=O)COc3ccc([N+](=O)[O-])cc3)nn2)c(N)n1
result: 145 to 148 °C

New cases:
query: If you can, please state the reported melting point value of Cc1cccc(OCc2cn(Cc3cnc(C)nc3N)nn2)c1 .
result: 58 to 59 °C

query: State the recorded melting point for this entry: Cc1ncc(Cn2nnc(COC(=O)c3ccccc3Br)c2I)c(N)n1
result: 200 to 202 °C

query: Entry Cc1ncc(Cn2nnc(CNC(=O)c3ccc([N+](=O)[O-])cc3)c2I)c(N)n1 has what melting point?
result: 223 to 224 °C

query: Look at this compound and give its reported melting point. COc1ccc(OCc2nnn(Cc3cnc(C)nc3N)c2I)cc1
result: 177 to 179 °C

query: Using the record for Cc1ncc(Cn2cc(COC(=O)c3ccccc3Cl)nn2)c(N)n1 , report its melting point.
result: 85 to 87 °C

query: Param item = Cc1ncc(Cn2nnc(COc3ccc(F)cc3)c2I)c(N)n1 ; retrieve measured melting point.
result: 160 to 162 °C

query: // returns reported melting point for input Cc1ncc(Cn2cc(COc3ccccc3[N+](=O)[O-])nn2)c(N)n1
result: 184 to 185 °C

----------
Recorded melting point by entry

query: Any idea what melting point was measured for Cc1ncc(Cn2nnc(CNC(=O)c3ccc(Cl)cc3)c2I)c(N)n1 [Compound 103] ?
result: 231 to 233 °C

More entries:
query: Any idea what its melting point is? The compound is CCOC(=O)c1ccc(OCc2nnn(Cc3cnc(C)nc3N)c2I)cc1 [Compound 87]
result: 146 to 147 °C

query: I have this compound here, Cc1ccc(C(=O)OCc2cn(Cc3cnc(C)nc3N)nn2)cc1 [Compound 38] , and I need its recorded melting point.
result: 202 to 203 °C

query: What melting point value was documented for this compound, Cc1ncc(Cn2cc(COC(=O)c3ccccc3F)nn2)c(N)n1 [Compound 37] ?
result: 124 to 125 °C

query: For the compound Cc1ncc(Cn2cc(COc3ccc(Cl)cc3Cl)nn2)c(N)n1 [Compound 10] , what melting point is on record?
result: 175 to 177 °C

query: // query melting point value for entry Cc1ncc(Cn2cc(COC(=O)COc3ccc(Cl)cc3C)nn2)c(N)n1 [Compound 59]
result: 138 to 140 °C

query: What does the record list as melting point for Cc1ncc(Cn2nnc(COc3ccc([N+](=O)[O-])cc3Cl)c2I)c(N)n1 [Compound 30] ?
result: 223 to 225 °C

query: I would be grateful if you could share the reported melting point for Cc1ncc(Cn2cc(CNC(=O)c3ccc(Cl)cc3)nn2)c(N)n1 [Compound 48] .
result: 165 to 167 °C

query: I have this compound here, Cc1ncc(Cn2nnc(COC(=O)c3ccc([N+](=O)[O-])cc3)c2I)c(N)n1 [Compound 95] , and I need its recorded melting point.
result: 192 to 193 °C

----------
Test system: Rice Sheath Blight Disease (sheath and culm blight of rice)
Assay: Spawn growth rate on agar plates (Embodiment 9)
Format: cell-based, Rhizoctonia solani
Conditions: 48 h, testing concentration of 100 μg/g; Table 6; read-out: Sheath and culm blight of rice Average inhibition rate (%)
readout-kind: inhibition of growth at 100 µg/g (%)
Write the number in % without appending the unit.

query: Bench note: what inhibition of growth at 100 µg/g did Cc1ncc(Cn2nnc(COc3ccc(Cl)c(C)c3)c2I)c(N)n1 show?
result: 97

query: Given the entry Cc1ncc(Cn2nnc(COc3ccc(F)cc3)c2I)c(N)n1 , report its measured inhibition of growth at 100 µg/g.
result: 96

query: Suppose we examine the molecule COc1ccc(OCc2nnn(Cc3cnc(C)nc3N)c2I)cc1 ; what inhibition of growth at 100 µg/g value has been reported?
result: 99

query: Please look up its inhibition of growth at 100 µg/g: Cc1ncc(Cn2nnc(COc3ccc(Cl)cc3)c2I)c(N)n1
result: 100

Here is the next item to consider.
query: Param item = Cc1ncc(Cn2nnc(COc3ccc(Br)cc3)c2I)c(N)n1 ; retrieve measured inhibition of growth at 100 µg/g.
result: 98

Data origin, for the record: patent US8865724B2
